test-details: Caco-2 cell monolayer transport (permeability) study
Format: in vitro ADME
condition-notes: human, basolateral to apical, formulations at 200 µg/mL in HBSS/0.6% DMSO, pH 7.4, 37 °C, up to 120 min, n = 6

{"molecule": "COc1cc(C2Oc3cc([C@H]4Oc5cc(O)cc(O)c5C(=O)[C@@H]4O)ccc3OC2CO)ccc1O (stereo partly shown)", "Papp B→A at 120 min, 200 µg/mL, ×10⁻⁶ cm/s": 6.28}
